target-under-test: UniProt:P13569
assay-text: Membrane Potential Dye, Enteroid Assay B
Assay type: cell-based
protocol-conditions: Table 9
measure-name: Ent. B Max Activity

Solved cases (5 shown):
| compound | target-under-test | Ent. B Max Activity |
| --- | --- | --- |
| Cc1cccc(C)c1-c1cc2nc(n1)NS(=O)(=O)c1cccc(c1)C(=O)N[C@H](CC(C)C)[C@@H](c1ccc(C(C)(C)C)cc1)O2 (single isomer, unassigned) [Compound 39] | UniProt:P13569 | +++ (+++ is >60%) |
| Cc1cccc(C)c1-c1cc2nc(n1)NS(=O)(=O)c1cc(n(C)n1)C(=O)N[C@H](CC(C)(C)C)CO2 | UniProt:P13569 | +++ (+++ is >60%) |
| Cc1cccc(CC2CC2)c1-c1cc2nc(n1)NS(=O)(=O)c1cccc(c1)C(=O)N[C@H](CC(C)C)CO2 | UniProt:P13569 | +++ (+++ is >60%) |
| O=C1N[C@@H]2CCCCCCc3ccccc3-c3cc(nc(n3)NS(=O)(=O)c3cccc1c3)OC2 | UniProt:P13569 | +++ (+++ is >60%) |
| Cc1cccc(C)c1-c1cc2nc(n1)NS(=O)(=O)c1cccc(c1)C(=O)N[C@H](CCC(C)(C)O)CO2 | UniProt:P13569 | + (+ is <30%) |

Proceeding to the next compound to report its Ent. B Max Activity.
Query :: Which measured Ent. B Max Activity value corresponds to CC(C)C[C@@H]1COc2cc(C3(C)CC3)nc(n2)NS(=O)(=O)c2cccc(c2)C(=O)N1 ?
Result :: + (+ is <30%)

====

target-under-test: CFTR (Homo sapiens, UniProt P13569)
Sequence (P13569 with tags, fused parts or gaps DEL508-508): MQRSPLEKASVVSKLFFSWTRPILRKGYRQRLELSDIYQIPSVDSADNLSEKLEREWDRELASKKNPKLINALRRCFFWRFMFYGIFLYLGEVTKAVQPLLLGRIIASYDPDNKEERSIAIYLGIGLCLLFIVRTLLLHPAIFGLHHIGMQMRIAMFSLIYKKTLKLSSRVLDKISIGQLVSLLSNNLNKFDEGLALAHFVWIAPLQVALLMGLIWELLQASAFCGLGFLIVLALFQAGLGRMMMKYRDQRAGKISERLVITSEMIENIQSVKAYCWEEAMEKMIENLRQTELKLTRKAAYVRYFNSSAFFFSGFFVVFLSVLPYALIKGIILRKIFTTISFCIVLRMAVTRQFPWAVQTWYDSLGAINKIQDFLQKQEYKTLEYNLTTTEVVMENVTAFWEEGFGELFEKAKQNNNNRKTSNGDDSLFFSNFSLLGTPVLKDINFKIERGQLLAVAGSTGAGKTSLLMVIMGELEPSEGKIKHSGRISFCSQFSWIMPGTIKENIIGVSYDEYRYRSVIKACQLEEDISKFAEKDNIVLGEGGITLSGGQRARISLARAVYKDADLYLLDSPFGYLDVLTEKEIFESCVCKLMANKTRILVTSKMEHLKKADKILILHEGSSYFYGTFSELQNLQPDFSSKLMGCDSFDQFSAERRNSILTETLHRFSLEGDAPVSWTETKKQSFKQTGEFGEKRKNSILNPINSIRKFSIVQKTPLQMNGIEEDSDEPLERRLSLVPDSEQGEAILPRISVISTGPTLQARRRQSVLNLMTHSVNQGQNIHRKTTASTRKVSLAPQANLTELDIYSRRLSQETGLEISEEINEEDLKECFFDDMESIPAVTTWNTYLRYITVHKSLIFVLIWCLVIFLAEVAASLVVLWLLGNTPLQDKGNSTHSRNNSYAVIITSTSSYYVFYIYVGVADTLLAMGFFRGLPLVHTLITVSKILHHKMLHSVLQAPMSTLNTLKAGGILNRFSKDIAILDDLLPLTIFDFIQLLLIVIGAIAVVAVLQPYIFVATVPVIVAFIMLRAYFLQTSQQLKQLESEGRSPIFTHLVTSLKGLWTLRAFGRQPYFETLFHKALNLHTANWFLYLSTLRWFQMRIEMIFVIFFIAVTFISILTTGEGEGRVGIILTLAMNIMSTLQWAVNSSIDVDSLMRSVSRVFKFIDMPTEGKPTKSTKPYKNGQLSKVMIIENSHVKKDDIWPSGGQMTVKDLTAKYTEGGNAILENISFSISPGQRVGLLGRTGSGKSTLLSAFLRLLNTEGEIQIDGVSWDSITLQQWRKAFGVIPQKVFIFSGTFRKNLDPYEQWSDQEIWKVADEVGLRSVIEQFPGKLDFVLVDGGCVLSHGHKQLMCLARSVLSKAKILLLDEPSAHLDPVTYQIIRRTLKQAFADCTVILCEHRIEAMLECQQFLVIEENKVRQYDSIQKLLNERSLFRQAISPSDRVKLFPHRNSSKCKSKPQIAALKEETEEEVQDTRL
assay-text: Membrane Potential Dye, Enteroid Assay A
Format: cell-based
protocol-conditions: Table 9; read-out: Ent. A EC50
measure-name: EC50

Solved cases (5 shown):
| molecule | target-under-test | EC50 |
| --- | --- | --- |
| Cc1cccc(C)c1-c1cc2nc(n1)NS(=O)(=O)c1cccc(c1)C(=O)N[C@@H]1CN(C(=O)CC(C)(C)C)C[C@H]1O2 | CFTR (Homo sapiens, UniProt P13569) | 3 to 30 µM |
| Cc1cccc(C)c1-c1cc2nc(n1)NS(=O)(=O)c1cccc(c1)C(=O)N[C@@H]1CN(CCC3(C(F)(F)F)CC3)CC[C@H]1O2 | CFTR (Homo sapiens, UniProt P13569) | < 1 µM |
| COC[C@H]1NC(=O)c2cccc(c2)S(=O)(=O)Nc2nc(cc(-c3c(C)cccc3C)n2)OC1c1ccc(C(C)(C)C)cc1 (single isomer, unassigned) | CFTR (Homo sapiens, UniProt P13569) | < 1 µM |
| Cc1cccc(C)c1-c1cc2nc(n1)NS(=O)(=O)c1cccc(c1)C(=O)NCC(c1ccc(CCC(C)(C)C)cc1)O2 (stereo not shown) | CFTR (Homo sapiens, UniProt P13569) | < 1 µM |
| Cc1cccc(C)c1-c1cc2nc(n1)NS(=O)(=O)c1cccc(c1)C(=O)N[C@@H](CC13CC4CC(CC(C4)C1)C3)CO2 (single isomer, unassigned) [Compound 110] | CFTR (Homo sapiens, UniProt P13569) | < 1 µM |

Query :: Which measured EC50 value corresponds to Cc1cccc(C)c1-c1cc2nc(n1)NS(=O)(=O)c1cccc(c1)C(=O)NCC(c1ccc(CC(C)(C)C)cc1)O2 (stereo not shown) ?
Result :: < 1 µM

Query :: Which measured EC50 value corresponds to Cc1cccc(C)c1-c1cc2nc(n1)NS(=O)(=O)c1cccc(c1)C(=O)NC1(CCN(C(C)C)CC1)CO2 ?
Result :: 3 to 30 µM

Query :: Which measured EC50 value corresponds to Cc1cccc(COCc2ccccc2)c1-c1cc2nc(n1)NS(=O)(=O)c1cccc(c1)C(=O)N[C@H](CC(C)C)CO2 ?
Result :: < 1 µM

Query :: Which measured EC50 value corresponds to CCC(C)(C)C(=O)N1C[C@H]2NC(=O)c3cccc(c3)S(=O)(=O)Nc3nc(cc(-c4c(C)cccc4C)n3)O[C@@H]2C1 ?
Result :: 3 to 30 µM

Query :: Which measured EC50 value corresponds to Cc1cccc(C)c1-c1cc2nc(n1)NS(=O)(=O)c1cccc(c1)C(=O)N[C@@H]1CCN(C3CC4(CCCC4)C3)C[C@H]1O2 (stereo in doubt) ?
Result :: 3 to 30 µM

====

target-under-test: UniProtKB P13569
assay-text: Membrane Potential Dye, Enteroid Assay A
Format: cell-based
protocol-conditions: Table 8; read-out: Ent. A EC50
pEC50: −log10 of the molar value.
measure-name: pEC50

Solved cases (2 shown):
| compound | measure-name | result |
| --- | --- | --- |
| Cc1cccc(C)c1-c1cc2nc(n1)NS(=O)(=O)c1cccc(c1)C(=O)NC[C@@H](c1ccc(C(C)(F)F)cc1)O2 (stereo in doubt) [Compound 399] | pEC50 | > 6.00 |
| CC1=C(c2cc3nc(n2)NS(=O)(=O)c2cccc(c2)C(=O)N[C@H](CC(C)C)CO3)C(C)CCC1 (stereo partly drawn) | pEC50 | 5.52 to 6.00 |

Proceeding to the next compound to report its pEC50.
Query :: Which measured pEC50 value corresponds to Cc1cccc(C)c1-c1cc2nc(n1)NS(=O)(=O)c1cccc(c1)C(=O)NCC(c1ccc(C#N)cc1)O2 (stereo not drawn) ?
Result :: > 6.00

====

target-under-test: UniProt P13569
assay-text: Membrane Potential Dye, Enteroid Assay A
Type: cell-based
protocol-conditions: Enteroid Assay A; read-out: Ent. A EC50
measure-name: EC50

Query :: Which measured EC50 value corresponds to Cc1ccccc1-c1cc2nc(n1)NS(=O)(=O)c1cccc(c1)C(=O)N[C@H](CC1CCCCC1)CO2 ?
Result :: < 1000 nM

Query :: Which measured EC50 value corresponds to COC(=O)c1cc(CN2CCC3(CC2)CNC(=O)c2cccc(c2)S(=O)(=O)Nc2nc(cc(-c4c(C)cccc4C)n2)OC3)ccc1F ?
Result :: 3000 to 30000 nM

Query :: Which measured EC50 value corresponds to Cc1cccc(C)c1-c1cc2nc(n1)NS(=O)(=O)c1cccc(c1)C(=O)NC[C@@H](Cc1ccccc1)O2 ?
Result :: < 1000 nM

====

target-under-test: CFTR (Homo sapiens, UniProt P13569)
assay-text: Membrane Potential Dye, Enteroid Assay A
Format: cell-based
protocol-conditions: Table 9
measure-name: Ent. A Max Activity

| molecule | result |
| --- | --- |
| Cc1cccc(C)c1-c1cc2nc(n1)NS(=O)(=O)c1cccc(c1)C(=O)N[C@@H]1CN(CCC3(C(F)(F)F)CC3)CC[C@H]1O2 [Compound 58] | +++ (+++ is >60%) |
| Cc1cccc(C)c1-c1cc2nc(n1)NS(=O)(=O)c1cccc(c1)C(=O)N[C@@H]1CCN(C3CC4(CCCC4)C3)C[C@H]1O2 (stereo in doubt) [Compound 385] | + (+ is <30%) |
| Cc1cccc(C)c1-c1cc2nc(n1)NS(=O)(=O)[C@H]1CC[C@H]1C(=O)N[C@H](CC(C)C)CO2 (single isomer, unassigned) [Compound 71] | + (+ is <30%) |
| Cc1cccc(C)c1-c1cc2nc(n1)NS(=O)(=O)c1cccc(c1)C(=O)N[C@@H](C)[C@@H](c1ccc(C(C)(C)C)cc1)O2 [Compound 43] | +++ (+++ is >60%) |
| CCCCC1(CCCC)COc2cc(-c3c(C)cccc3C)nc(n2)NS(=O)(=O)c2cccc(c2)C(=O)N1 [Compound 185] | +++ (+++ is >60%) |
| Cc1cccc(CC2CC2)c1-c1cc2nc(n1)NS(=O)(=O)c1cccc(c1)C(=O)N[C@H](CC(C)C)CO2 [Compound 107] | +++ (+++ is >60%) |
| Cc1cccc(C)c1-c1cc2nc(n1)NS(=O)(=O)c1cccc(c1)C(=O)N[C@H]1CCN(C3CC4(CCCC4)C3)C[C@H]1O2 [Compound 384] | +++ (+++ is >60%) |

Proceeding to the next molecule to report its Ent. A Max Activity.
Query :: Param readout = Ent. A Max Activity; param system = CFTR (Homo sapiens, UniProt P13569); param query = Cc1cccc(C)c1-c1cc2nc(n1)NS(=O)(=O)c1cccc(c1)C(=O)N[C@@H]1CN(Cc3ccccc3)C[C@H]1O2 [Compound 383] ; response: value
Result :: +++ (+++ is >60%)

====

Recorded EC50 for the following molecules
target-under-test: UniProtKB P13569
assay-text: Membrane Potential Dye, Enteroid Assay B
Type: cell-based
protocol-conditions: Table 9; read-out: Ent. B EC50

| molecule | target-under-test | EC50 |
| --- | --- | --- |
| Cc1cccc(C)c1-c1cc2nc(n1)NS(=O)(=O)c1cccc(c1)C(=O)NCC(c1ccc(CCCO)cc1)O2 (stereo not drawn) | UniProtKB P13569 | 1000 to 3000 nM |
| Cc1cccc(C)c1-c1cc2nc(n1)NS(=O)(=O)c1cccc(c1)C(=O)N[C@H](CCC(C)(C)O)CO2 | UniProtKB P13569 | 3000 to 30000 nM |
| Cc1cccc(C)c1-c1cc2nc(n1)NS(=O)(=O)c1cc(nn1C)C(=O)N[C@H](CC(C)(C)C)CO2 | UniProtKB P13569 | 1000 to 3000 nM |
| Cc1cccc(CC2CC2)c1-c1cc2nc(n1)NS(=O)(=O)c1cccc(c1)C(=O)N[C@H](CC(C)C)CO2 | UniProtKB P13569 | < 1000 nM |
| Cc1cccc(C)c1-c1cc2nc(n1)NS(=O)(=O)c1cccc(c1)C(=O)NCC(c1ccc([Si](C)(C)C)cc1)O2 (single isomer, unassigned) | UniProtKB P13569 | < 1000 nM |

Query :: Which measured EC50 value corresponds to Cc1cccc(C)c1-c1cc2nc(n1)NS(=O)(=O)c1cccc(c1)C(=O)N[C@@H](CC13CC4CC(CC(C4)C1)C3)CO2 (single isomer, unassigned) ?
Result :: < 1000 nM

Query :: Which measured EC50 value corresponds to Cc1cccc(C)c1-c1cc2nc(n1)NS(=O)(=O)c1cc(n[nH]1)C(=O)N[C@H](CC(C)C)CO2 ?
Result :: 3000 to 30000 nM

Query :: Which measured EC50 value corresponds to Cc1cccc(C)c1-c1cc2nc(n1)NS(=O)(=O)c1cccc(c1)C(=O)N[C@@H]1CN(C3CCC4(CC3)CC4)C[C@H]1O2 ?
Result :: < 1000 nM

Query :: Which measured EC50 value corresponds to Cc1cccc(C)c1-c1cc2nc(n1)NS(=O)(=O)c1cccc(c1)C(=O)NCc1cc(Cl)ccc1O2 ?
Result :: < 1000 nM
